biological target: Ret(h) (Homo sapiens); experiment: KinaseProfiler kinase assay; assay type: biochemical; settings: Ret; read-out: IC50
Sequence (P07949 29-1114): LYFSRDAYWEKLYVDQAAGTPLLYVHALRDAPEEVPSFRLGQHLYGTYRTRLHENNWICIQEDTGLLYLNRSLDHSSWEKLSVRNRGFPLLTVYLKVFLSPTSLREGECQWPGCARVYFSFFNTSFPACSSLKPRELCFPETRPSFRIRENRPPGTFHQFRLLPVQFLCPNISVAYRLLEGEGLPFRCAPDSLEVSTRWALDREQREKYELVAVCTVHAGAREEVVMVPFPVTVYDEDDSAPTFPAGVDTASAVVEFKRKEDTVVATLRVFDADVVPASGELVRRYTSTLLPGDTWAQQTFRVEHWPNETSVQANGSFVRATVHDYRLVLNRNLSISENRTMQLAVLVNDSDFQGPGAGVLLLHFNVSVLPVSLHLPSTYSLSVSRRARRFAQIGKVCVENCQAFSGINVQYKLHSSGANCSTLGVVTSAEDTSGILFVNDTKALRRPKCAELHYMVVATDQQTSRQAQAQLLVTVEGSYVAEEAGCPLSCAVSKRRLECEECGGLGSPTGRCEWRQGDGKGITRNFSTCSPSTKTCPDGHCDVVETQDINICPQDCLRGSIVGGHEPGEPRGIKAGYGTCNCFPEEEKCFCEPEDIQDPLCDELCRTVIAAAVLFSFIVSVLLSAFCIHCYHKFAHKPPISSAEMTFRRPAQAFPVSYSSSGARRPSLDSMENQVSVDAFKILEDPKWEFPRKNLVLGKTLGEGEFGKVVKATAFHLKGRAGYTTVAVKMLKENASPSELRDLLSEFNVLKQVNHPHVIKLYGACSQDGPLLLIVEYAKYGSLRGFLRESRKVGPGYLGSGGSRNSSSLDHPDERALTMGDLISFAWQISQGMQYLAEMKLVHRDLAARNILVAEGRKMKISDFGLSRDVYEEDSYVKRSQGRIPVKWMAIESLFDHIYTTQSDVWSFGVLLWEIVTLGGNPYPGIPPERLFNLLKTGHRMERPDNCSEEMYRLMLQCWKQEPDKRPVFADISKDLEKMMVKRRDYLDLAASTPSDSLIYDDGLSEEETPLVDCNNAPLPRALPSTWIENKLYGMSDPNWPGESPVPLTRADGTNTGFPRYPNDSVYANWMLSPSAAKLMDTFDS
quantity: IC50 (nM)
State just the number; it will be interpreted in nM.

stdin: Suppose we examine the compound C/C=C/c1cc(Nc2cc(N3CCN(C)CC3)nc(Oc3ccc4[nH]c(C)cc4c3F)n2)n[nH]1 ; what IC50 value has been reported?
stdout: 2

* * *

target: UniProtKB P35968; assay: KinaseProfiler kinase assay; type: biochemical
Sequence (P35968 20-1356): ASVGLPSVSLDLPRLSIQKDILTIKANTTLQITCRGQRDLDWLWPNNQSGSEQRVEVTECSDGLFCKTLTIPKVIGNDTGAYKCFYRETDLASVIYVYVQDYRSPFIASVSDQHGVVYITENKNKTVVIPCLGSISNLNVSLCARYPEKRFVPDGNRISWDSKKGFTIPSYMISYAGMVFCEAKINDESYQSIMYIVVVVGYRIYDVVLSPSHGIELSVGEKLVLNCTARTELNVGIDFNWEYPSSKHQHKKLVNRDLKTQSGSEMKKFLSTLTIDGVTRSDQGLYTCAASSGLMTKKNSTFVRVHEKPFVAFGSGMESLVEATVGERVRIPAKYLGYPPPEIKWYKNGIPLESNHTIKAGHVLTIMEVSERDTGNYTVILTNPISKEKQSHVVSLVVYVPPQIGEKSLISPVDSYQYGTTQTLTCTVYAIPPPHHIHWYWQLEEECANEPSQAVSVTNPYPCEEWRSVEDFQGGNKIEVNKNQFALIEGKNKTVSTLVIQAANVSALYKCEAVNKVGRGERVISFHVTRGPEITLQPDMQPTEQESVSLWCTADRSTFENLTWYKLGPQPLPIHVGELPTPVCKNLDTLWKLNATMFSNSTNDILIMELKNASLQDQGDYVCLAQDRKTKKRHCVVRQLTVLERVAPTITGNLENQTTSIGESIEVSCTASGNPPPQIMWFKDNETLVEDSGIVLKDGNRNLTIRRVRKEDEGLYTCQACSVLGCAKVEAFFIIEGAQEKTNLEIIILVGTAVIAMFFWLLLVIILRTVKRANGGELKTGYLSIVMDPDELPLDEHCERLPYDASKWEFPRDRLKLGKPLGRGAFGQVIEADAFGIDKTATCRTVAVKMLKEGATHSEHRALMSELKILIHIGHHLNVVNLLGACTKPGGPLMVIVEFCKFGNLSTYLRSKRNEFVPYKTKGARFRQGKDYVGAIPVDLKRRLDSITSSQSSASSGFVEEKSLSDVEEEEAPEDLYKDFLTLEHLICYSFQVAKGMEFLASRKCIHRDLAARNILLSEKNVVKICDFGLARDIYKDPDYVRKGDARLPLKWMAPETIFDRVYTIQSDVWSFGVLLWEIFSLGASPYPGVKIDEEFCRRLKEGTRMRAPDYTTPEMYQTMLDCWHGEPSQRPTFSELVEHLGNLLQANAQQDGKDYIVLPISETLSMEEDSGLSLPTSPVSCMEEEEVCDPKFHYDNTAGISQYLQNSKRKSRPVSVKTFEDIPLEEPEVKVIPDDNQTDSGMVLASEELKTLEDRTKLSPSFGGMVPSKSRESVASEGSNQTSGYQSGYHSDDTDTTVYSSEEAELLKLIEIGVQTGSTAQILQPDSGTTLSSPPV
inhibition at 1 µM for assorted compounds
State just the number; it will be interpreted in %.

* CCN1CCN(c2cc(Nc3cc(C)[nH]n3)nc(Oc3cc(F)c4[nH]c(C)cc4c3F)n2)CC1 | 91
* Cc1cc2c(F)c(Oc3nc(Nc4cc(C5CC5)[nH]n4)cc(N4CCNCC4)n3)ccc2[nH]1 | 96
* C/C=C/c1cc(Nc2cc(N3CCN(C)CC3)nc(Oc3ccc4[nH]c(C)cc4c3Cl)n2)n[nH]1 | 91
* C/C=C/c1cc(Nc2cc(N3CCN(C)CC3)nc(Oc3ccc4c(cc(C)n4C)c3F)n2)n[nH]1 | 91

Now take the following compound into account.
stdin: Suppose we examine the compound Cc1cc2c(F)c(Oc3nc(Nc4cc(C5CC5)[nH]n4)cc(N4CCN(c5ccccn5)CC4)n3)ccc2[nH]1 ; what inhibition at 1 µM value has been reported?
stdout: 93
